Entry source: the supplement of paper PMC9732359

I'd appreciate it if you could supply protein stability index values for the items below.
experiment: protein stability index of a GFP-peptide fusion (yeast GPS) (PSI 1-4); higher = more stable; sorted into four equal gates, so the index is relative within each strain; conditions: pdr5∆
Numbers only.

Worked examples, 5 sequences total:
Please give measured protein stability index of the following entry: LINEILLKSNDPLLSLY [RGR1]
2.15

Fill in reported protein stability index for this entry: DPELLRSYIFGGHVSQY [RPL5]
3.58

For LAFKKNEMLLKRVTKVK [MTW1] , write its protein stability index.
2.03

Assign protein stability index to the following record: IAAIIGRLNTLVISLAA [IRR1]
1.99

Give me measured protein stability index, please, for this sequence: DVTHTLGMLDDNKMDSV [SMC4]
3.03

Would you mind giving protein stability index for every sequence in the list below?
1. QDDDFPLDDAGTIGWDL [MCD1]
2. RGVDAGKGNTFEKVGSH [RPN14]
3. ITLALADAGIELVDMAG [MTR3]
4. VVPDLGHLNGHTPTIAS [SSN2]
5. LQKQILTVENKLQFETD [SMC1]
6. SSLIKAGLDKGISINNM [RPO31]
7. NKLTGKQIVFEIPSQTN [RPS7B]

3.25
2.98
2.43
2.65
2.37
2.7
3.06

For every listed record, write down its protein stability index.
1. GREGIWSKTIKARTNLH [RPC34]
2. VTSADSNLKISLVKYPE [SWI1]
3. IEVTIGIDQYSFNVKEN [AAR2]

1: 1.58; 2: 2.72; 3: 2.75
